Tested on: EPHA2;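 further: KINOMEscan kinase panel screen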
Recorded conditions: concentration: 1 μM,replicates: in singlicate; n = 1
We label by threshold. Values of %Inh strictly beneath 4% are satisfied. Values of 4% and up are not satisfied.

>>> category_label("Cc1ccc(C(=O)Nc2ccc(Oc3ccc4nc(NC(=O)C5CC5)cn4c3)c(F)c2)c(=O)n1-c1ccccc1")
"not satisfied"

Ask: %Inh strictly < 4% for this compound? NC(=O)c1ccc(-c2cc3ncnc(SCC(=O)O)c3s2)cc1
Result: satisfied

Ask: %Inh strictly < 4% for this compound? C[C@@H]1CNc2c(sc3ccc4nc(-c5ccc(O)cc5)ccc4c23)C(=O)N1
Result: satisfied

Ask: %Inh strictly < 4% for this compound? Cl.Cl.NC[C@H](CC1CCCCC1)NC(=O)c1ccc(-c2ccnc3[nH]ccc23)s1
Result: satisfied

Ask: %Inh strictly < 4% for this compound? Cn1ccc2ncnc(Oc3ccc(NC(=O)Nc4cc(C(C)(C)C)on4)c(Cl)c3)c21
Result: not satisfied

Ask: %Inh strictly < 4% for this compound? CC(=O)Nc1ccc(-c2cc3ncnc(SCC(=O)O)c3s2)cc1
Result: satisfied
